test system: SB.mhdgc-1; assay: viability at highest tested concentration (MAXR) relative to DMSO; higher = less cytotoxic; details: SB.mhdgc-1 (hereditary c.1380delA CDH1 gastric cancer)

| molecule | viability (%) |
| --- | --- |
| COc1ccc(CCC(=O)Nc2nc3ccc(Cl)cc3s2)cc1OC (top concentration 46.0829 µM) | 78 |
| CC[C@H](CO)Nc1nc(NCc2ccccc2)c2ncn(C(C)C)c2n1 [Seliciclib] (top concentration 46.0829 µM) | 42.5 |
| CN1CCc2c(c3ccccc3n2Cc2ccc(C(=O)NO)cc2)C1 [Tubastatin A] (top concentration 46.0829 µM) | 1.43 |

* * *

tested on: SB.msgc-1; assay: area under the dose-response curve of % viability (trapezoidal, 11 doses) (% viability x log10 concentration); higher = less cytotoxic; details: SB.msgc-1 (sporadic gastric cancer)

| molecule | area under the dose-response curve |
| --- | --- |
| CC(C)Cn1cnc2c(N)nc3ccccc3c21 [Imiquimod] (top concentration 46.0829 µM) | 511 |
| Cn1cnc2c(F)c(Nc3ccc(Br)cc3F)c(C(=O)NOCCO)cc21 [ARRY-162] (top concentration 46.0829 µM) | 500 |
| CO[C@@H]1[C@H](N(C)C(=O)c2ccccc2)C[C@H]2O[C@]1(C)n1c3ccccc3c3c4c(c5c6ccccc6n2c5c31)C(=O)NC4 [Midostaurin] (top concentration 46.0829 µM) | 490 |
| COC1=CC2=C(C=C1CC3=C(F)C(=CC=C3)Cl)C(=O)\C(=C/N2[C@H](CO)C(C)C)C(O)=O [Elvitegravir] (top concentration 46.0829 µM) | 512 |
| C[C@H]1[C@@H](OC(=O)CCC(=O)O)O[C@@H]2O[C@@]3(C)CC[C@H]4[C@H](C)CC[C@@H]1[C@@]24OO3 [Artesunate (AS)] (top concentration 46.0829 µM) | 499 |

* * *

test system: SB.msgc-1; assay: area under the dose-response curve of % viability (trapezoidal, 11 doses) (% viability x log10 concentration); higher = less cytotoxic; details: SB.msgc-1 (sporadic gastric cancer)

| molecule | area under the dose-response curve |
| --- | --- |
| C[N+](C)(C)CC(=O)O.[Cl-] [Betaine] (top concentration 46.0829 µM) | 507 |
| COc1c(N2C[C@@H]3CCCN[C@@H]3C2)c(F)cc2c(=O)c(C(=O)O)cn(C3CC3)c12.Cl.O [Moxifloxacin hydrochloride] (top concentration 46.0829 µM) | 507 |
| CC(C)OC1=CC=C2C(=C1)O\C=C(/C2=O)C3=CC=CC=C3 [Ipriflavone] (top concentration 46.0829 µM) | 487 |
| c1ccc(CCCN2CCN(CCOC(c3ccccc3)c3ccccc3)CC2)cc1 (top concentration 46.0829 µM) | 486 |

* * *

test system: SB.msgc-1; experiment: viability at highest tested concentration (MAXR) relative to DMSO; higher = less cytotoxic; settings: SB.msgc-1 (sporadic gastric cancer)
Structures can show the parent of a compound that is named as a salt.
Assign labels as follows, please: Satisfied for viability below 30%; Not satisfied for viability equal to or exceeding 30%.

| molecule | target-or-system | qualitative-label |
| --- | --- | --- |
| CC(C)C[C@H](CC(=O)O)C(=O)N[C@@H](Cc1c[nH]c2ccccc12)C(=O)N[C@@H](C)c1ccccc1 [GM-1489] (top concentration 46.0829 µM) | SB.msgc-1 | Not satisfied |
| Nc1nc(Nc2ccc([S+](N)(=O)[O-])cc2)nn1C(=O)c1c(F)cccc1F (top concentration 46.0829 µM) | SB.msgc-1 | Not satisfied |
| COc1cc(N[S+](=O)([O-])c2ccc(N)cc2)nc(OC)n1 [Sulphadimethoxine] (top concentration 46.0829 µM) | SB.msgc-1 | Not satisfied |
| COc1ccc(OC)c(-c2nnc3ccc(-c4ccc(OC)c(O[C@@H]5CCOC5)c4)nn23)c1 (top concentration 46.0829 µM) | SB.msgc-1 | Satisfied |
| Cc1ccc2c(c1)c1c(n2CCc2ccc(C)nc2)CCN(C)C1 [Latrepirdine hydrochloride] (top concentration 46.0829 µM) | SB.msgc-1 | Not satisfied |
| c1ccc2c(Cc3c[nH]c4ccccc34)c[nH]c2c1 [Diindolylmethane] (top concentration 46.0829 µM) | SB.msgc-1 | Satisfied |
| CN1\N=N/C2=C(N=C[N]2C1=O)C(N)=O [Temozolomide] (top concentration 46.0829 µM) | SB.msgc-1 | Not satisfied |
| OC1=CC2=C(C=C1)C(=O)\C(=C(O2)\C3=CC(=C(O)C=C3)O)O [Fisetin] (top concentration 46.0829 µM) | SB.msgc-1 | Not satisfied |
| C=C1C(=O)[C@@]23C(CC[C@@H]1[C@H]2O)[C@@]12CO[C@]3(O)[C@@H](O)[C@@H]1C(C)(C)CC[C@@H]2O (stereo partly specified) [Oridonin] (top concentration 46.0829 µM) | SB.msgc-1 | Satisfied |
| CC(C)C(=O)Oc1ccc(CO)cc1[C@H](CCN(C(C)C)C(C)C)c1ccccc1 [Fesoterodine fumarate] (top concentration 46.0829 µM) | SB.msgc-1 | Not satisfied |
| N#CCNC(=O)c1ccc(-c2ccnc(Nc3ccc(N4CCOCC4)cc3)n2)cc1 [CYT387] (top concentration 46.0829 µM) | SB.msgc-1 | Satisfied |

* * *

test system: SB.msgc-1; experiment: area under the dose-response curve of % viability (trapezoidal, 11 doses) (% viability x log10 concentration); higher = less cytotoxic; conditions: SB.msgc-1 (sporadic gastric cancer)
Where a name gives a salt, the structure may show the parent alone.

| molecule | area under the dose-response curve |
| --- | --- |
| COCC(=O)NC/C=C/c1ccc2ncnc(Nc3ccc(Oc4ccc(C)nc4)c(C)c3)c2c1 (top concentration 46.0829 µM) | 345 |
| CCc1ccc(C(=O)Nc2cc(CN3CCN(C)CC3)cc(C(F)(F)F)c2)cc1C#Cc1cnc2ccnn2c1 [PRP003-013] (top concentration 46.0829 µM) | 498 |
| COc1cc2nc(N3CCN(C(=O)c4ccco4)CC3)nc(N)c2cc1OC [Prazosin hydrochloride] (top concentration 46.0829 µM) | 460 |
| CC(=O)OCC(=O)[C@@]1(O)CC[C@H]2[C@@H]3CCC/4=C/C(=O)CC[C@]4(C)[C@H]3C(=O)C[C@]12C [Cortisone acetate] (top concentration 46.0829 µM) | 560 |
| Nc1ncnc2c1ncn2[C@@H]1O[C@H](CO)[C@@H](O)[C@H]1O [Adenosine] (top concentration 46.0829 µM) | 454 |
| Cc1nc(N)ncc1-c1nc(N2CCOCC2)c2sc(C(C)(C)O)cc2n1 [GNE-490] (top concentration 46.0829 µM) | 321 |
| CN(C)Cc1ccc(-c2nc3cccc4c3n2CCNC4=O)cc1 (top concentration 46.0829 µM) | 437 |
| Fc1ccc(CNc2ncnc3ccc(F)cc23)cc1 [Spautin-1] (top concentration 46.0829 µM) | 470 |
| CN[C@H]1[C@H](O[C@@H]2[C@H](O[C@@H]3[C@@H](O)[C@@H](O)[C@@H](NC(=N)N)[C@@H](O)[C@H]3NC(=N)N)O[C@H](C)[C@@]2(O)C=O)O[C@@H](CO)[C@@H](O)[C@H]1O [Streptomycin sulfate] (top concentration 13.5607 µM) | 611 |
| COc1cc2nc(N3CCN(C(=O)C4COc5ccccc5O4)CC3)nc(N)c2cc1OC (stereo unspecified) [Doxazosin mesylate] (top concentration 46.0829 µM) | 568 |
| CC(C)(C)c1cnc(CSc2cnc(NC(=O)C3CCNCC3)s2)o1 [SNS-032] (top concentration 46.0829 µM) | 365 |
| O=C(c1ccc(F)cc1)C1CCN(CCn2c(=O)[nH]c3ccccc3c2=O)CC1 [Ketanserin] (top concentration 46.0829 µM) | 523 |
| CC(=O)N1CCN(c2ccc(OCc3nn(C)c(C)c3-c3cccc4c(CCCOc5cc(C)c(Cl)c(C)c5)c(C(=O)O)n(Cc5cccnc5)c34)cc2)CC1 (top concentration 46.0829 µM) | 498 |
| O=C(O)C(=O)c1cn(Cc2ccccc2)c2ccc(-c3ccc(OC(F)(F)F)cc3)cc12 [Tiplasinin] (top concentration 46.0829 µM) | 468 |
| CCCCC[C@H](O)/C=C/[C@H]1[C@H](O)CC(=O)[C@@H]1CCCCCCC(=O)O [Alprostadil] (top concentration 46.0829 µM) | 557 |
| CC(C)=CC[C@@H](O)C/1=C/C(=O)C2=C(O)C=CC(=C2C1=O)O [Shikonin] (top concentration 46.0829 µM) | 417 |

* * *

system: SB.msgc-1; experiment: area under the dose-response curve of % viability (trapezoidal, 11 doses) (% viability x log10 concentration); higher = less cytotoxic; settings: SB.msgc-1 (sporadic gastric cancer)
recorded-metric: area under the dose-response curve

| compound | recorded-metric | number |
| --- | --- | --- |
| c1ccc2[nH]c(-c3cscn3)nc2c1 [Thiabendazole] (top concentration 46.0829 µM) | area under the dose-response curve | 487 |
| NC(=O)Nc1cc(-c2ccc(CN3CCOCC3)cc2)sc1C(N)=O [AZ-TAK1 Inhibitor] (top concentration 46.0829 µM) | area under the dose-response curve | 504 |
| COc1cccc(N(C)C(=S)Oc2ccc3c(c2)CCCC3)n1 [Liranaftate] (top concentration 46.0829 µM) | area under the dose-response curve | 507 |
